# Disintegrin and metalloproteinase domain-containing protein 10 (Homo sapiens): pKi values follow
# Sequence (O14672 whole entry, the tested form may be a part): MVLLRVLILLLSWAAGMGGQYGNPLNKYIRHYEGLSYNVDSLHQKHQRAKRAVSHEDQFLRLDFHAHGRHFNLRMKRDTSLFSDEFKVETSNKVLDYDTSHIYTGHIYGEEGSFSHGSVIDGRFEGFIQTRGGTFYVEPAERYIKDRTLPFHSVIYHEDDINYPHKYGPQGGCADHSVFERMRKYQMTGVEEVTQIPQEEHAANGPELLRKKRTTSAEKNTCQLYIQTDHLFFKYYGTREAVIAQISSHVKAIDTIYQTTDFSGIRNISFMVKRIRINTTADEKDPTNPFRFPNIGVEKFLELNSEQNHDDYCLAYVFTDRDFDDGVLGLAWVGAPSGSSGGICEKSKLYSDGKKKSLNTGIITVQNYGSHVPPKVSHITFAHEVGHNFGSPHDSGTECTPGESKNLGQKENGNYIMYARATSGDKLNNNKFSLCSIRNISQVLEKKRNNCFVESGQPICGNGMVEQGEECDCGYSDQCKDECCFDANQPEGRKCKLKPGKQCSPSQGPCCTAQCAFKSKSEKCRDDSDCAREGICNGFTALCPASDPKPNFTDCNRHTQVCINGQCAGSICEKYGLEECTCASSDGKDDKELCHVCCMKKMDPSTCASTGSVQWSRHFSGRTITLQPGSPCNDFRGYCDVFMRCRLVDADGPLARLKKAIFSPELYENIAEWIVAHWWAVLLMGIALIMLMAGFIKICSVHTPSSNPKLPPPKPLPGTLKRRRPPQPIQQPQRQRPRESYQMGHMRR
The value called pKi is obtained by taking minus log10 of the concentration in mol/L.

Worked set:
[[record]]
molecule = "O=C(NCCc1cccs1)[C@H](O)[C@@H](O)C(=O)N1CCCC1c1cccc(Cl)c1 (some centres undefined)"
experimentalresult = 7.54

[[record]]
molecule = "O=C(NCCc1cccs1)[C@H](O)[C@@H](O)C(=O)N1CCN(c2ccccc2Cl)CC1"
experimentalresult = 6.40


State, for Disintegrin and metalloproteinase domain-containing protein 10 (Homo sapiens), measured pKi of the molecule listed here: O=C(NCc1cc2ccccc2o1)[C@H](O)[C@@H](O)C(=O)N1CCCC1c1ccccc1 (some centres undefined) 6.13

###

- testedOn: UniProt:P50281
valueKind: Ki (nM)
Value expressed in nM; do not type the unit.

Read off the recorded Ki for O=C(NCc1cc2ccccc2o1)[C@H](O)[C@@H](O)C(=O)N1CCCC1c1ccccc1 (some centres not stated) 140

###

Sequence of the target: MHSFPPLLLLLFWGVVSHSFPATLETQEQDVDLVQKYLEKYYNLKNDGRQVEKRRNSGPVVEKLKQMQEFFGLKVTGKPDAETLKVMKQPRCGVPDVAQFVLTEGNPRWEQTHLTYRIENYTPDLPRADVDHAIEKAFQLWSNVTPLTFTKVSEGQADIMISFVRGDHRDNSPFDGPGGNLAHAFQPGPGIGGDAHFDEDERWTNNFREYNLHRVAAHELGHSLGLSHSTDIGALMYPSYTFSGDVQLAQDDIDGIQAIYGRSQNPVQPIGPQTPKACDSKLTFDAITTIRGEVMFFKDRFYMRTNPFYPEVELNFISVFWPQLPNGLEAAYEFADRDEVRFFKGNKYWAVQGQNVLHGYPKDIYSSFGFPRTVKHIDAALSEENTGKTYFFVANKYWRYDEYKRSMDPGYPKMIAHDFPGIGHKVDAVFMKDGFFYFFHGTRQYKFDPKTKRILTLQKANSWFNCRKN
pKi: −log10 of the molar value.
valueKind: pKi

Answered examples (3):
[[record]]
compound = "O=C(NCCc1cc(Cc2ccccc2)cs1)[C@H](O)[C@@H](O)C(=O)N1CCCC1c1ccccc1 (some centres undefined)"
experimentalresult = "< 4.30"

[[record]]
compound = "O=C(NCc1cc2ccccc2o1)[C@H](O)[C@@H](O)C(=O)N1CCCC1c1ccccc1 (some centres undefined)"
experimentalresult = 4.73

[[record]]
compound = "O=C(NCCc1cccs1)[C@H](O)[C@@H](O)C(=O)N1CCCC1c1cccc(Cl)c1 (some centres undefined)"
experimentalresult = "< 4.30"


// below: pKi requested for another compound
Kindly indicate its recorded pKi. Item: O=C(NCCc1cccs1)[C@H](O)[C@@H](O)C(=O)N1CCN(c2ccccc2Cl)CC1 < 4.05

###

Attribute: Ki
- testedOn: 72 kDa type IV collagenase (Homo sapiens)
- Sequence (P08253 whole entry): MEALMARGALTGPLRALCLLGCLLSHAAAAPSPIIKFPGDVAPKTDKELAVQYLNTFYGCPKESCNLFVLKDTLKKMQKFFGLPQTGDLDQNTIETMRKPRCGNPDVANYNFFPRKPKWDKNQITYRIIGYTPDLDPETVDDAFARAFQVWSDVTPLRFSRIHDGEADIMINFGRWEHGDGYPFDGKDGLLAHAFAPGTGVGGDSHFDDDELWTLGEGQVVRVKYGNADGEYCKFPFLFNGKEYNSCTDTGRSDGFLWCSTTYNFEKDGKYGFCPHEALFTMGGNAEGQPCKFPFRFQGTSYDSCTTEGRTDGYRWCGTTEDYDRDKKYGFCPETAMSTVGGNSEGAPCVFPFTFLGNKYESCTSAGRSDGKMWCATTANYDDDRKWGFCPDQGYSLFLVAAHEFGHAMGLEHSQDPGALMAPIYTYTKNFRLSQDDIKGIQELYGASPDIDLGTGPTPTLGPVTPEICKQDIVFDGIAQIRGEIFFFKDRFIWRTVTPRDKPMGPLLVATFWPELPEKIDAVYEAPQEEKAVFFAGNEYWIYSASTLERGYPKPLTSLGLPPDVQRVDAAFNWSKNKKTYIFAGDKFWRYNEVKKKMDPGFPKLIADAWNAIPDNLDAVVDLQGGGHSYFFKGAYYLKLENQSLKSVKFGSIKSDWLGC

Take a look at these entries with their results.
[[record]]
molecule = "O=C(NCCc1cc(Cc2ccccc2)cs1)[C@H](O)[C@@H](O)C(=O)N1CCCC1c1ccccc1 (stereo partly drawn)"
testedon = "72 kDa type IV collagenase (Homo sapiens)"
experimentalresult = "> 50 µM"

[[record]]
molecule = "O=C(NCCc1cccs1)[C@H](O)[C@@H](O)C(=O)N1CCN(c2ccccc2Cl)CC1"
testedon = "72 kDa type IV collagenase (Homo sapiens)"
experimentalresult = "> 30 µM"


# evaluate next
Supply Ki measured with 72 kDa type IV collagenase (Homo sapiens) for O=C(NCc1cc2ccccc2o1)[C@H](O)[C@@H](O)C(=O)N1CCCC1c1ccccc1 (stereo partly drawn) . 0.3 µM
